ASSAY_PROCEDURE: in vitro
STUDY_CONDITIONS: human, CC50 (μM), Table 2 amides; HepDES19 cells, MTT
Field 'label' (enum: Satisfied / Not satisfied). Set to Satisfied when CC50 at 24 h is strictly under 10 µM; else Not satisfied.

COMPOUND: Cc1cc(O)c(=O)c(O)cc1C(=O)N1CCN(C(=O)c2ccc(Cl)cc2)CC1 [compound 875]
GROUP: Satisfied
--
COMPOUND: COC(=O)[C@H](Cc1c[nH]c2ccccc12)NC(=O)c1cc(O)c(=O)c(O)cc1C [compound 797]
GROUP: Not satisfied
--
COMPOUND: Cc1cc(O)c(=O)c(O)cc1C(=O)N1CCN(C(=O)c2cccnc2)CC1 [compound 918]
GROUP: Not satisfied
--
COMPOUND: Cc1cc(O)c(=O)c(O)cc1C(=O)N1CCSC1 [compound 712]
GROUP: Satisfied
--
COMPOUND: Cc1cc(O)c(=O)c(O)cc1C(=O)N1CCN(c2oc(-c3ccco3)nc2C#N)CC1 [compound 803]
GROUP: Not satisfied
--
COMPOUND: Cc1cc(O)c(=O)c(O)cc1C(=O)Nc1ccccc1 [compound 389]
GROUP: Not satisfied
--
COMPOUND: Cc1ccc(CNC(=O)c2cc(O)c(=O)c(O)cc2C)c(C)c1 [compound 809]
GROUP: Satisfied
--
COMPOUND: Cc1cc(O)c(=O)c(O)cc1C(=O)Nc1cccc(Cc2ccccc2)c1 [compound 799]
GROUP: Satisfied
--
COMPOUND: Cc1cc(O)c(=O)c(O)cc1C(=O)Nc1ccccc1Cc1ccccc1 [compound 834]
GROUP: Not satisfied
--
COMPOUND: Cc1cc(O)c(=O)c(O)cc1C(=O)N1CCN(C(=O)c2ccco2)CC1 [compound 800]
GROUP: Not satisfied
--
COMPOUND: Cc1cc(O)c(=O)c(O)cc1C(=O)NCC1CCOC1 (stereo not shown) [compound 1018]
GROUP: Not satisfied
--
COMPOUND: Cc1cc(O)c(=O)c(O)cc1C(=O)Nc1ccccc1OCc1ccccc1 [compound 835]
GROUP: Not satisfied
--
COMPOUND: Cc1cc(O)c(=O)c(O)cc1C(=O)NCC1CCCCN1C(=O)OC(C)(C)C (stereo not shown) [compound 810]
GROUP: Not satisfied
--
COMPOUND: Cc1cc(O)c(=O)c(O)cc1C(=O)NCC1COC(C)(C)O1 (stereo not shown) [compound 808]
GROUP: Not satisfied
--
COMPOUND: Cc1cc(O)c(=O)c(O)cc1C(=O)Nc1ccc(OCc2ccccc2)cc1 [compound 837]
GROUP: Satisfied
--
COMPOUND: Cc1cc(O)c(=O)c(O)cc1C(=O)NCCCc1ccccc1 [compound 708]
GROUP: Not satisfied
--
COMPOUND: C#CCCC1(CCNC(=O)c2cc(O)c(=O)c(O)cc2C)N=N1 [compound 384]
GROUP: Not satisfied
--
COMPOUND: Cc1cc(O)c(=O)c(O)cc1C(=O)N1CCN(C(=O)C2COc3ccccc3O2)CC1 (stereo not shown) [compound 876]
GROUP: Satisfied
--
COMPOUND: Cc1cc(O)c(=O)c(O)cc1C(=O)NCc1ccc(N2CCCC2)cc1 [compound 1019]
GROUP: Not satisfied
--
COMPOUND: Cc1cc(O)c(=O)c(O)cc1C(=O)NCCc1ccccc1 [compound 710]
GROUP: Satisfied
--
COMPOUND: Cc1cc(O)c(=O)c(O)cc1C(=O)NCc1ccccc1 [compound 388]
GROUP: Not satisfied
--
COMPOUND: Cc1cc(O)c(=O)c(O)cc1C(=O)NCCNS(=O)(=O)c1ccc(C(F)(F)F)cc1 [compound 874]
GROUP: Not satisfied
--
COMPOUND: Cc1cc(O)c(=O)c(O)cc1C(=O)NC(CCC(=O)OC(C)(C)C)C(=O)OC(C)(C)C (stereo not shown) [compound 867]
GROUP: Satisfied
--
COMPOUND: Cc1cc(O)c(=O)c(O)cc1C(=O)N1CCCCC1 [compound 390]
GROUP: Not satisfied
--
COMPOUND: COc1ccc(C(=O)N2CCN(C(=O)c3cc(O)c(=O)c(O)cc3C)CC2)cc1 [compound 877]
GROUP: Not satisfied
--
COMPOUND: COC(=O)[C@H](CCSC)NC(=O)c1cc(O)c(=O)c(O)cc1C [compound 796]
GROUP: Not satisfied
--
COMPOUND: Cc1cc(O)c(=O)c(O)cc1C(=O)NCc1ccc(Oc2ccccc2)cc1 [compound 807]
GROUP: Satisfied
--
COMPOUND: Cc1cc(O)c(=O)c(O)cc1C(=O)N1CCS(=O)(=O)C1 [compound 709]
GROUP: Not satisfied
--
COMPOUND: Cc1cc(O)c(=O)c(O)cc1C(=O)Nc1ccc(Cc2ccccc2)cc1 [compound 798]
GROUP: Satisfied
--
COMPOUND: Cc1cc(O)c(=O)c(O)cc1C(=O)N1CCN(C(=O)C2CCCCC2)CC1 [compound 872]
GROUP: Not satisfied
--
COMPOUND: Cc1cc(O)c(=O)c(O)cc1C(=O)NCc1cccs1 [compound 801]
GROUP: Not satisfied
--
COMPOUND: Cc1cc(O)c(=O)c(O)cc1C(=O)N1CCN(S(=O)(=O)c2ccsc2)CC1 [compound 917]
GROUP: Satisfied
--
COMPOUND: Cc1cc(O)c(=O)c(O)cc1C(=O)N1CCN(c2ncccn2)CC1 [compound 1016]
GROUP: Not satisfied
--
COMPOUND: Cc1cc(O)c(=O)c(O)cc1C(=O)Nc1ccc(F)cc1F [compound 711]
GROUP: Satisfied

###

Item-by-item account of CC50
System: HepDES19 cells
STUDY_CONDITIONS: Table 2 amides, MTT

MOLECULE: Cc1cc(O)c(=O)c(O)cc1C(=O)N1CCNCC1 [compound 391]
CC50 [µM]: 37.5

MOLECULE: Cc1cc(O)c(=O)c(O)cc1C(=O)N1CCNCC1 [compound 404]
CC50 [µM]: 4.5

###

ASSAY_PROCEDURE: in vitro
STUDY_CONDITIONS: human, CC50, Table 3 sulfur compounds; HepDES19 cells, MTT
Item-by-item account of log10 of CC50 at 24 h
MEASURED_QUANTITY: log10 of CC50 at 24 h (log10 of the value in µM)

SMILES_REPR: Cc1ccc(Sc2cccc(O)c(=O)c2O)cc1
MEASURED_QUANTITY: log10 of CC50 at 24 h
MEASURED: 1.27
--
SMILES_REPR: O=c1c(O)c(SCc2ccccc2)ccc(SCc2ccccc2)c1O
MEASURED_QUANTITY: log10 of CC50 at 24 h
MEASURED: 0.91
--
SMILES_REPR: CCCCCCSc1cccc(O)c(=O)c1O
MEASURED_QUANTITY: log10 of CC50 at 24 h
MEASURED: 1.33
--
SMILES_REPR: CSc1ccc(SC)c(O)c(=O)c1O
MEASURED_QUANTITY: log10 of CC50 at 24 h
MEASURED: 1.84
--
SMILES_REPR: CCCCS(=O)(=O)c1ccc(S(=O)(=O)CCCC)c(O)c(=O)c1O
MEASURED_QUANTITY: log10 of CC50 at 24 h
MEASURED: 2.00
--
SMILES_REPR: CC(C)Sc1ccc(SC(C)C)c(O)c(=O)c1O
MEASURED_QUANTITY: log10 of CC50 at 24 h
MEASURED: 0.97
--
SMILES_REPR: CS(=O)(=O)c1ccc(O)c(=O)c(O)c1
MEASURED_QUANTITY: log10 of CC50 at 24 h
MEASURED: 1.90

###

Test system: C. neoformans var. grubii, KN99
ASSAY_PROCEDURE: C. neoformans growth inhibition assay (limiting dilution)
Format: cell-based, Cryptococcus neoformans
STUDY_CONDITIONS: Cryptococcus neoformans, 48 h, Table 2 amides; 48 h, 35° C., tested 0.19 to 50 μM; read-out: C. neoformans MIC80
Field 'label' (enum: TRUE / FALSE). Set to TRUE when MIC80 is strictly under 10 µM; else FALSE.

MOLECULE: Cc1cc(O)c(=O)c(O)cc1C(=O)NCCNS(=O)(=O)c1ccc(C(F)(F)F)cc1 [compound 874]
GROUP: FALSE
--
MOLECULE: Cc1cc(O)c(=O)c(O)cc1C(=O)N1CCSC1 [compound 712]
GROUP: FALSE
--
MOLECULE: COC(=O)[C@H](Cc1ccccc1)NC(=O)c1cc(O)c(=O)c(O)cc1C [compound 795]
GROUP: TRUE
--
MOLECULE: Cc1cc(O)c(=O)c(O)cc1C(=O)N1CCN(c2oc(-c3ccco3)nc2C#N)CC1 [compound 803]
GROUP: FALSE
--
MOLECULE: Cc1cc(O)c(=O)c(O)cc1C(=O)NC(CCC(=O)O)C(=O)O (stereo not drawn) [compound 868]
GROUP: FALSE
--
MOLECULE: Cc1cc(O)c(=O)c(O)cc1C(=O)N1CCN(Cc2c(F)cccc2Cl)CC1 [compound 1021]
GROUP: TRUE
--
MOLECULE: COc1ccc(CNC(=O)c2cc(O)c(=O)c(O)cc2C)cc1 [compound 806]
GROUP: TRUE
--
MOLECULE: Cc1cc(O)c(=O)c(O)cc1C(=O)NCC1CCCCN1C(=O)OC(C)(C)C (stereo not drawn) [compound 810]
GROUP: TRUE
--
MOLECULE: COC(=O)[C@@H](NC(=O)c1cc(O)c(=O)c(O)cc1C)C(C)C [compound 793]
GROUP: FALSE

// provenance: patent US12606529B2
